Data origin: ChEMBL document CHEMBL1122839

Tested on: Rattus norvegicus
ASSAY_EXPLANATION: Cardiovascular activity in normotensive rats after oral administration of 30 mg/kg after 2 hr
Format: functional
PROPERTY_MEASURED: Systolic blood pressure (mmHg)
// units = mmHg; emit number, no label

Reference set (3 entries):
{"COMPOUND": "CN(C)C(=O)C(CCN1CCC(O)(c2ccc(Cl)cc2)CC1)(c1ccccc1)c1ccccc1 [LOPERAMIDE]", "QUANTITY_UNIT": "mmHg", "Systolic blood pressure": 117}
{"COMPOUND": "Cc1ccc(C)n1CC(=O)N=C(N)N.Cl", "QUANTITY_UNIT": "mmHg", "Systolic blood pressure": 159}
{"COMPOUND": "CNC(=N)NC(=O)Nc1c(C)cccc1C [LIDAMIDINE]", "QUANTITY_UNIT": "mmHg", "Systolic blood pressure": 132}

Entry CC1C=C[C@@H](C)N1CC(=O)N=C(N)N.Cl.Cl (stereo in doubt; 2) , Systolic blood pressure reported as 137

---

System: Rattus norvegicus
ASSAY_EXPLANATION: Percent inhibition of caster oil induced diarrhea in rats at a dose of 30 mg/kg peroral administration after 2 hours
Type: functional
PARTICULARS: route oral
PROPERTY_MEASURED: inhibition in vivo at 30 mg/kg (%)
// units = %; emit number, no label

Reference set (4 entries):
{"COMPOUND": "CNC(=N)NC(=O)Nc1c(C)cccc1C", "PROPERTY_MEASURED": "inhibition in vivo at 30 mg/kg", "EXPERIMENTAL_VALUE": 100}
{"COMPOUND": "CN(C)C(=O)C(CCN1CCC(O)(c2ccc(Cl)cc2)CC1)(c1ccccc1)c1ccccc1 [LOPERAMIDE]", "PROPERTY_MEASURED": "inhibition in vivo at 30 mg/kg", "EXPERIMENTAL_VALUE": 98}
{"COMPOUND": "Cc1ccc(C)n1CC(=O)N=C(N)N.Cl", "PROPERTY_MEASURED": "inhibition in vivo at 30 mg/kg", "EXPERIMENTAL_VALUE": 96}
{"COMPOUND": "C/N=C(\\N)NC(=O)CN1C(C)C=C[C@H]1C (stereo partly specified)", "PROPERTY_MEASURED": "inhibition in vivo at 30 mg/kg", "EXPERIMENTAL_VALUE": 88}

The reported inhibition in vivo at 30 mg/kg value, Rattus norvegicus, for CC1C=C[C@@H](C)N1CC(=O)NC1=NCCN1 (stereo partly specified) reads 35

The reported inhibition in vivo at 30 mg/kg value, Rattus norvegicus, for CC1C=C[C@@H](C)N1CC(=O)N=C(N)N.Cl.Cl (stereo in doubt; 2) reads 100
